Cited source: ChEMBL document CHEMBL1138190

Provide the reported half-life of each item.
method-notes: Plasma half life in Sprague-Dawley rat at 15 mg/kg, po
Format: ADME, organism-based
Parameters: dose 15 mg/kg, route oral
Numbers only, in h.

| line-notation | scale-unit | half-life |
| --- | --- | --- |
| C=C[C@]12OC(=O)N(CCCCn3cnc(-c4ccc(C)nc4)c3)[C@@H]1[C@@H](C)C(=O)[C@H](C)C[C@@](C)(OC)[C@H](O[C@@H]1O[C@H](C)C[C@H](N(C)C)[C@H]1O)[C@@H](C)C(=O)[C@@H](C)C(=O)O[C@@H]2CC | h | 2.4 |

Could you now consider this next molecule?
QUERY: Find the recorded half-life belonging to C=C[C@]12OC(=O)N(CCCCn3cnc(-c4ccc(Cl)nc4)c3)[C@@H]1[C@@H](C)C(=O)[C@H](C)C[C@@](C)(OC)[C@H](O[C@@H]1O[C@H](C)C[C@H](N(C)C)[C@H]1O)[C@@H](C)C(=O)[C@@H](C)C(=O)O[C@@H]2CC and report it.
RESULT: 1.7

====

Tested on: Enterococcus faecalis
method-notes: Antibacterial activity against Enterococcus faecalis bc11148-2
Type: functional
measured-quantity: MIC (µg/mL)
Answers are plain numbers, in µg/mL.

Study these solved cases before continuing.
| line-notation | subject-of-test | MIC / µg/mL |
| --- | --- | --- |
| C=C[C@]12OC(=O)N(CCCCn3cnc(-c4cccnc4)c3)[C@@H]1[C@@H](C)C(=O)[C@H](C)C[C@@](C)(OC)[C@H](O[C@@H]1O[C@H](C)C[C@H](N(C)C)[C@H]1O)[C@@H](C)C(=O)[C@@H](C)C(=O)O[C@@H]2CC | Enterococcus faecalis | 0.4 |
| C=C[C@]12OC(=O)N(CCCCn3cnc(-c4ccc(OC)nc4)c3C)[C@@H]1[C@@H](C)C(=O)[C@H](C)C[C@@](C)(OC)[C@H](O[C@@H]1O[C@H](C)C[C@H](N(C)C)[C@H]1O)[C@@H](C)C(=O)[C@@H](C)C(=O)O[C@@H]2CC | Enterococcus faecalis | 1.56 |
| C=C[C@]12OC(=O)N(CCN(C)Cc3ccnc(-c4cccnc4)c3)[C@@H]1[C@@H](C)C(=O)[C@H](C)C[C@@](C)(OC)[C@H](O[C@@H]1O[C@H](C)C[C@H](N(C)C)[C@H]1O)[C@@H](C)C(=O)[C@@H](C)C(=O)O[C@@H]2CC | Enterococcus faecalis | 0.2 |

--- query ---
QUERY: Which MIC value is on record for C=C[C@]12OC(=O)N(CCCCn3cnc4c(C)ncnc43)[C@@H]1[C@@H](C)C(=O)[C@H](C)C[C@@](C)(OC)[C@H](O[C@@H]1O[C@H](C)C[C@H](N(C)C)[C@H]1O)[C@@H](C)C(=O)[C@@H](C)C(=O)O[C@@H]2CC ?
RESULT: 0.4

====

Test system: Streptococcus pneumoniae
method-notes: Antibacterial activity against Streptococcus pneumoniae Erm 6849
Type: functional
Record form. Attribute: MIC. Fill in for each entry.
Answers are plain numbers, in µg/mL.

| line-notation | MIC, µg/mL |
| --- | --- |
| C=C[C@]12OC(=O)N(CCCCn3cnc(-c4ccc(NC)nc4)c3)[C@@H]1[C@@H](C)C(=O)[C@H](C)C[C@@](C)(OC)[C@H](O[C@@H]1O[C@H](C)C[C@H](N(C)C)[C@H]1O)[C@@H](C)C(=O)[C@@H](C)C(=O)O[C@@H]2CC | 0.4 |

Now take the following molecule into account.
QUERY: Please report the recorded MIC for C=C[C@]12OC(=O)N(CCN(C)Cc3ccc(-c4cccnc4)s3)[C@@H]1[C@@H](C)C(=O)[C@H](C)C[C@@](C)(OC)[C@H](O[C@@H]1O[C@H](C)C[C@H](N(C)C)[C@H]1O)[C@@H](C)C(=O)[C@@H](C)C(=O)O[C@@H]2CC .
RESULT: 0.2

====

System: Streptococcus pneumoniae
method-notes: Antibacterial activity against Streptococcus pneumoniae Mef S 3427
Assay type: functional
measured-quantity: MIC (µg/mL)
One number for each entry, in µg/mL.

Sample records with MIC:
| line-notation | scale-unit | MIC |
| --- | --- | --- |
| C=C[C@]12OC(=O)N(CCCCn3cnc(-c4ccc(OC)nc4)c3)[C@@H]1[C@@H](C)C(=O)[C@H](C)C[C@@](C)(OC)[C@H](O[C@@H]1O[C@H](C)C[C@H](N(C)C)[C@H]1O)[C@@H](C)C(=O)[C@@H](C)C(=O)O[C@@H]2CC | µg/mL | 0.1 |
| C=C[C@]12OC(=O)N(CCCCn3cnc4c(C)ncnc43)[C@@H]1[C@@H](C)C(=O)[C@H](C)C[C@@](C)(OC)[C@H](O[C@@H]1O[C@H](C)C[C@H](N(C)C)[C@H]1O)[C@@H](C)C(=O)[C@@H](C)C(=O)O[C@@H]2CC | µg/mL | 0.2 |
| C=C[C@]12OC(=O)N(CCCC(C)(C)n3cnc4ncccc43)[C@@H]1[C@@H](C)C(=O)[C@H](C)C[C@@](C)(OC)[C@H](O[C@@H]1O[C@H](C)C[C@H](N(C)C)[C@H]1O)[C@@H](C)C(=O)[C@@H](C)C(=O)O[C@@H]2CC | µg/mL | 0.2 |

Provide MIC values for the following items, in order.
1. C=C[C@]12OC(=O)N(CCN(C)Cc3ccc(-c4cccnc4)s3)[C@@H]1[C@@H](C)C(=O)[C@H](C)C[C@@](C)(OC)[C@H](O[C@@H]1O[C@H](C)C[C@H](N(C)C)[C@H]1O)[C@@H](C)C(=O)[C@@H](C)C(=O)O[C@@H]2CC
2. C=C[C@]12OC(=O)N(CCCCc3ccc(-c4cccnc4)s3)[C@@H]1[C@@H](C)C(=O)[C@H](C)C[C@@](C)(OC)[C@H](O[C@@H]1O[C@H](C)C[C@H](N(C)C)[C@H]1O)[C@@H](C)C(=O)[C@@H](C)C(=O)O[C@@H]2CC
3. C=C[C@]12OC(=O)N(CCCCn3cnc(-c4ccc(NC)nc4)c3)[C@@H]1[C@@H](C)C(=O)[C@H](C)C[C@@](C)(OC)[C@H](O[C@@H]1O[C@H](C)C[C@H](N(C)C)[C@H]1O)[C@@H](C)C(=O)[C@@H](C)C(=O)O[C@@H]2CC

RESULT:
[0.1, 0.2, 0.2]

====

method-notes: Lung half life in Sprague-Dawley rat at 15 mg/kg, po
Format: ADME, organism-based
Design: dose 15 mg/kg, route oral
measured-quantity: half-life

| line-notation | half-life |
| --- | --- |
| C=C[C@]12OC(=O)N(CCCCn3cnc(-c4ccc(C)nc4)c3)[C@@H]1[C@@H](C)C(=O)[C@H](C)C[C@@](C)(OC)[C@H](O[C@@H]1O[C@H](C)C[C@H](N(C)C)[C@H]1O)[C@@H](C)C(=O)[C@@H](C)C(=O)O[C@@H]2CC | 3.4 h |
| CC[C@H]1OC(=O)[C@H](C)C(=O)[C@H](C)[C@@H](O[C@@H]2O[C@H](C)C[C@H](N(C)C)[C@H]2O)[C@](C)(OC)C[C@@H](C)C(=O)[C@H](C)[C@H]2N(CCCCn3cnc(-c4cccnc4)c3)C(=O)O[C@]12C | 1.3 h |

QUERY: // lookup half-life for C=C[C@]12OC(=O)N(CCCCn3cnc(-c4ccc(Cl)nc4)c3)[C@@H]1[C@@H](C)C(=O)[C@H](C)C[C@@](C)(OC)[C@H](O[C@@H]1O[C@H](C)C[C@H](N(C)C)[C@H]1O)[C@@H](C)C(=O)[C@@H](C)C(=O)O[C@@H]2CC
RESULT: 1.4 h

====

Tested on: Streptococcus pneumoniae
method-notes: Antibacterial activity against Streptococcus pneumoniae Mef S 3427
Type: functional
measured-quantity: MIC (µg/mL)
Give bare numbers, in µg/mL.

| line-notation | subject-of-test | MIC, µg/mL |
| --- | --- | --- |
| C=C[C@]12OC(=O)N(CCCCn3cnc(-c4cnccn4)c3)[C@@H]1[C@@H](C)C(=O)[C@H](C)C[C@@](C)(OC)[C@H](O[C@@H]1O[C@H](C)C[C@H](N(C)C)[C@H]1O)[C@@H](C)C(=O)[C@@H](C)C(=O)O[C@@H]2CC | Streptococcus pneumoniae | 0.1 |
| C=C[C@]12OC(=O)N(CCN(C)Cc3ccnc(-c4cccnc4)c3)[C@@H]1[C@@H](C)C(=O)[C@H](C)C[C@@](C)(OC)[C@H](O[C@@H]1O[C@H](C)C[C@H](N(C)C)[C@H]1O)[C@@H](C)C(=O)[C@@H](C)C(=O)O[C@@H]2CC | Streptococcus pneumoniae | 0.1 |
| CC[C@H]1OC(=O)[C@H](C)[C@@H](O[C@H]2C[C@@](C)(OC)[C@@H](O)[C@H](C)O2)[C@H](C)[C@@H](O[C@@H]2O[C@H](C)C[C@H](N(C)C)[C@H]2O)[C@](C)(OC)C[C@@H](C)C(=O)[C@H](C)[C@@H](O)[C@]1(C)O | Streptococcus pneumoniae | 3.13 |

Next molecule, please.
QUERY: State the recorded MIC for this entry: C=C[C@]12OC(=O)N(CCCCn3cnc(-c4cnc(OC)nc4)c3)[C@@H]1[C@@H](C)C(=O)[C@H](C)C[C@@](C)(OC)[C@H](O[C@@H]1O[C@H](C)C[C@H](N(C)C)[C@H]1O)[C@@H](C)C(=O)[C@@H](C)C(=O)O[C@@H]2CC
RESULT: 0.2
